All values here come from patent US7250410B2.

List of IC50 values.
Target: PDE4
Assay: Inhibition of PDE4, radioenzymatic phosphodiesterase assay
Assay type: biochemical, bovine
Conditions: Table 3, formula (II); 1 μM cyclic AMP
assayMetric: IC50 (µM)

- COc1cc2c(cc1OC)N(C)C(=O)CN=C2c1cc2ccccc2o1: 4.8
- COc1ccc(C2=NCC(=O)N(C)c3cc(OC)c(OC)cc32)cc1: 10
- COc1cc2c(cc1OC)N(C)C(=O)CN=C2/C=C/c1ccccc1: 8.4
- CCN1C(=O)C(C(O)c2cccc(Br)c2)N=C(c2ccccc2)c2cc(OC)c(OC)cc21 (stereo not drawn): 9.6
- CCN1C(=O)C(Cc2cccc(Br)c2)N=C(c2ccccc2)c2cc(OC)c(OC)cc21 (stereo not drawn): 3.76
- CCN1C(=O)C(Cc2cccc(C#N)c2)N=C(c2ccccc2)c2cc(OC)c(OC)cc21 (stereo not drawn): 9.2
- CCN1C(=O)C(Cc2cccc(C(F)(F)F)c2)N=C(c2ccccc2)c2cc(OC)c(OC)cc21 (stereo not drawn): 23
- CCOc1cc2c(cc1OC)C(c1ccccc1)=NC(Cc1cccc(C(N)=O)c1)C(=O)N2C (stereo not drawn): 0.52
- COc1cc2c(cc1OC)N(C)C(=O)CN=C2c1ccc2[nH]ccc2c1: 3.6

###

List of IC50 values.
Target: PDE4
Assay: Inhibition of PDE4, radioenzymatic phosphodiesterase assay
Format: biochemical, bovine
Conditions: Table 3, formula (II); 1 μM cyclic AMP
assayMetric: IC50 (µM)

* CCN1C(=O)C(Cc2ccccc2)N=C(c2ccccc2)c2cc(OC)c(OC)cc21 (stereo not shown) [IIcq] | 7.4
* COc1cc2c(cc1OC)N(C)C(=O)CN=C2c1cc2ccccc2[nH]1 [IIaq] | 7.9
* CCN1C(=O)C(Cc2ccccc2N)N=C(c2ccccc2)c2cc(OC)c(OC)cc21 (stereo not shown) [IIca] | 2.5
* CCN1C(=O)CN=C(c2ccc(-c3ccccc3)cc2)c2cc(OC)c(OC)cc21 [IIbp] | 5.74
* CCN1C(=O)C(Cc2cccc(OC)c2)N=C(c2ccccc2)c2cc(OC)c(OC)cc21 (stereo not shown) [IIdc] | 5.1
* CCOc1cc2c(cc1OCC)N(C)C(=O)CN=C2c1ccccc1 [IIbf] | 0.86
* CCOc1cc2c(cc1OC)C(c1ccccc1)=NC(c1ccccc1)C(=O)N2CC (stereo not shown) [IIdk] | 1.1

###

System: PDE4
Experiment: Inhibition of PDE4, radioenzymatic phosphodiesterase assay
Format: biochemical, bovine
Conditions: Table 2, formula (XXII); compound at 10 μM
PDE4 percentage inhibition at 10 μM of 30% or higher: Met. Under 30%: Not met.

- COc1cc2c(cc1OC)C(c1ccccc1)=NCC(=O)N2: Not met
- COc1ccc2c(c1)C(c1cccc(C(F)(F)F)c1)=NCC(=O)N2: Not met
- COc1cc2c(cc1OC)C(c1ccccc1)=NC(Cc1c[nH]c3ccccc13)C(=O)N2 (centres unmarked): Met
- O=C1CN=C(c2cccc(C(F)(F)F)c2)c2cc(I)ccc2N1: Met
- COc1cc2c(cc1OC)C(c1ccccc1)=N[C@@H](Cc1ccccc1)C(=O)N2: Met

###

Target: UniProt A0A3Q1M1E8
Sequence (A0A3Q1M1E8 1-1126): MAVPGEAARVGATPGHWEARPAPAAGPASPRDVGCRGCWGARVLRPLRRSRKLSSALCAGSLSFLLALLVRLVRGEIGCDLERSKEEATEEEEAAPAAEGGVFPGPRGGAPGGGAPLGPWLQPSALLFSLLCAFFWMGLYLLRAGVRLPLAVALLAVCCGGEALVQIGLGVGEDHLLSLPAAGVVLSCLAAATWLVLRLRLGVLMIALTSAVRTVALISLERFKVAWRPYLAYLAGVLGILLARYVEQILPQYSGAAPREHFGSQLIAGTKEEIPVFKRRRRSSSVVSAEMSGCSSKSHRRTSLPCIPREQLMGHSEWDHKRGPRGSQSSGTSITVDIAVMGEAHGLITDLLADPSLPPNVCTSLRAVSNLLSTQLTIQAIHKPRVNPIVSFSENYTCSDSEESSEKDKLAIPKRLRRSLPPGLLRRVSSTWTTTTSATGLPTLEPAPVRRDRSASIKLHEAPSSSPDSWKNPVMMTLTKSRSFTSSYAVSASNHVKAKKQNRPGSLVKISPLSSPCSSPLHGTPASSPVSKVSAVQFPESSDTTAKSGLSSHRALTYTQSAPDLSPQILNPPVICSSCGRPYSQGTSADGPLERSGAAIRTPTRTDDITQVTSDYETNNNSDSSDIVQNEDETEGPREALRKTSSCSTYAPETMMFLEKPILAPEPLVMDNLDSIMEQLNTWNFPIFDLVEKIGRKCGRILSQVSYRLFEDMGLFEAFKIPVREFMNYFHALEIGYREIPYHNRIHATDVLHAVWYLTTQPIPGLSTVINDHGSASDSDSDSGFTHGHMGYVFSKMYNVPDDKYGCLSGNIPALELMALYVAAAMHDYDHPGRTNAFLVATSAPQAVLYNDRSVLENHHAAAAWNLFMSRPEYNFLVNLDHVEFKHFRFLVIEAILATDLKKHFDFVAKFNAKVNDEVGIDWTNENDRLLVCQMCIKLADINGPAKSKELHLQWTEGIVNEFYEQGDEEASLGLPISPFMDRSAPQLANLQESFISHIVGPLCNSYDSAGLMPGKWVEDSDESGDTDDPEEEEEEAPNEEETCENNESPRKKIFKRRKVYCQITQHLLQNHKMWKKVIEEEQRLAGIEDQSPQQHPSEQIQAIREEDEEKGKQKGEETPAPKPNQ
Test: Selectivity: inhibition of PDE3, radioenzymatic phosphodiesterase assay
Format: biochemical, bovine
Details: read-out: PDE3 percentage inhibition at 10 μM
List of inhibition at 10 µM values.
assayMetric: inhibition at 10 µM

* COc1cc2c(cc1OC)C(c1ccc(-c3ccco3)cc1)=NN(C)C(=O)C2 [IIIav] | 92%
* CCOc1cc2c(cc1OCC)C(c1ccccc1)=NC(C)C(=O)N2 (stereo not drawn) [XXIIai] | 55%
* CCOc1cc2c(cc1OC)C(c1ccccc1)=NCC(=O)N2C [IIda] | 47%
* CCOc1cc2c(cc1OC)C(c1ccccc1)=NCC(=O)N2 [XXIIam] | 36%
* CCOc1cc2c(cc1OCC)N(CC)C(=O)CN=C2c1ccccc1 [IIbg] | 40%
* CCOc1cc2c(cc1OCC)C(c1ccccc1)=NCC(=O)N2 [XXIIag] | 22%
